Parameter: MIC. Scope: all listed entries.
tested on: Staphylococcus aureus; assay: Antibacterial activity against Staphylococcus aureus ATCC 25923 after 24 to 48 hr by two-fold serial dilution method; type: functional
// units = µg/mL; emit number, no label

O=c1oc2ccccc2c2nc3c(cc12)CCc1ccccc1-3; 25
O=C(N[C@H](CO)[C@H](O)c1ccc([N+](=O)[O-])cc1)C(Cl)Cl [CHLORAMPHENICOL]; 3.12
O=c1oc2ccc(Cl)cc2c2nc3c(cc12)CCCC3; 12.5
Cc1cccc2c1oc(=O)c1cc3c(nc12)CCC3; 12.5
Cc1ccc2oc(=O)c3cc4c(nc3c2c1)-c1ccccc1CC4; 50

Query string: Which MIC reading was recorded for the compound Cc1cccc2c1oc(=O)c1cc3c(nc12)-c1ccccc1CC3 ?
Result string: 12.5

Query string: Could you do the same for O=c1oc2ccc(Cl)cc2c2nc3c(cc12)CCc1ccccc1-3 , please?
Result string: 12.5

----------
tested on: Staphylococcus aureus; test: Antibacterial activity against Staphylococcus aureus ATCC 25923 after 24 to 48 hr by two-fold serial dilution method; type: functional
test-readout: MIC (µg/mL)
// units = µg/mL; emit number, no label

Here is how some compounds turned out for MIC.
Cc1ccc2oc(=O)c3cc4c(nc3c2c1)CCC4; 50
O=c1oc2ccc(Cl)cc2c2nc3c(cc12)CCC3; 12.5

Query string: Which MIC reading was recorded for the compound Cc1cccc2c1oc(=O)c1cc3c(nc12)CCCC3 ?
Result string: 12.5

----------
tested on: Aspergillus niger; test: Antifungal activity against Aspergillus niger MTCC 282 after 24 to 48 hr by two-fold serial dilution method; format: functional
MIC strictly under 50 µg/mL means Satisfied; at 50 µg/mL or over means Not satisfied.

O=c1oc2ccccc2c2nc3c(cc12)CCC3; Not satisfied

// next entry
Query string: Decide: MIC of Cc1cccc2c1oc(=O)c1cc3c(nc12)CCC3 strictly below 50 µg/mL?
Result string: Satisfied

----------
system: Pseudomonas; experiment: Antibacterial activity against Pseudomonas phaseolicola GSPB 2828 after 24 to 48 hr by two-fold serial dilution method; assay type: functional
test-readout: MIC
The number alone won't do; follow it with the unit.

Here is how some compounds turned out for MIC.
O=c1oc2ccc(Cl)cc2c2nc3c(cc12)CCC3; 100 µg/mL
O=c1oc2ccc(Cl)cc2c2nc3c(cc12)CCc1ccccc1-3; 50 µg/mL
CC(=O)OCC1=C(C(=O)O)N2C(=O)[C@@H](NC(=O)Cc3cccs3)[C@H]2SC1; 6.25 µg/mL
O=c1oc2ccccc2c2nc3c(cc12)CCc1ccccc1-3; 50 µg/mL

Query string: Which MIC reading was recorded for the compound Cc1ccc2oc(=O)c3cc4c(nc3c2c1)-c1ccccc1CC4 ?
Result string: 25 µg/mL

Query string: Could you do the same for Cc1cccc2c1oc(=O)c1cc3c(nc12)-c1ccccc1CC3 , please?
Result string: 50 µg/mL

Query string: Could you do the same for Cc1ccc2oc(=O)c3cc4c(nc3c2c1)CCC4 , please?
Result string: 50 µg/mL

Query string: Could you do the same for O=c1oc2ccccc2c2nc3c(cc12)CCCC3 , please?
Result string: 25 µg/mL

----------
tested on: Staphylococcus aureus; assay: Antibacterial activity against Staphylococcus aureus ATCC 25923 after 24 to 48 hr by two-fold serial dilution method; format: functional
test-readout: MIC (µg/mL)
// units = µg/mL; emit number, no label

O=c1oc2ccccc2c2nc3c(cc12)CCC3; 50
CC(=O)OCC1=C(C(=O)O)N2C(=O)[C@@H](NC(=O)Cc3cccs3)[C@H]2SC1 [CEPHALOTHIN]; 6.25

Query string: Which MIC reading was recorded for the compound O=c1oc2ccccc2c2nc3c(cc12)CCCC3 ?
Result string: 25

Query string: Could you do the same for Cc1ccc2oc(=O)c3cc4c(nc3c2c1)CCCC4 , please?
Result string: 50
